Test: Pharmacokinetic analysis in rats (cassette dosing, intravenous)
Type: in vivo
Conditions: male, Crl, CD (SD), rat, plasma, intravenous administration (0.5 mg/mL/kg), read-out: Rat t½ (converted)
observed-property: half-life (min)
Provide only the numeric value, understood in min.

Sample records with half-life:
>>> df
                    structure_smiles_string  reported
0  CC(C)(C)S(=O)(=O)N[C@H]1CC[C@H](c2[nH]nc(-c3ccccc3)c2F)CC1       488
1  CC(C)(C)S(=O)(=O)N[C@H]1CC[C@H](c2nc(-c3cccc(C#N)c3)c[nH]2)CC1      70.2
2  CC(C)(C)S(=O)(=O)N[C@H]1CC[C@H](c2nc(-c3ccccc3)c(C(F)(F)F)[nH]2)CC1       460
3  CC(C)(C)S(=O)(=O)N[C@H]1CC[C@H](c2nc(-c3ccccc3)c(Cl)[nH]2)CC1       242

# context switch: different compound, same half-life
Q: // lookup half-life for "CC(C)(C)S(=O)(=O)N[C@H]1CC[C@H](c2nc(-c3ccc(Cl)c(Cl)c3)c[nH]2)CC1"
Ans: 178

Entry source: patent US8299066B2
